# system under test: F protein of hMPV B virus (human metapneumovirus subtype B)
# test summary: cell-based or functional assay
Here, each record is paired with measured PRNT IC50 data.
I only need the number, in mg/L, no unit after it.

binder	PRNT IC50 (mg/L)
M1D2 (antibody, V domains shown) VH: QVQLQESGPGLVKPSGTLSLTCTVSGGSVNSDHWWTWVRQSPETGLEWIGELNHIGTFNYNPSFKSRATISIDTSKNQFSLTLTSVAAADTAVYYCARRPPPLPEYFYYYFMDVWGNGTTVTVSS VL: DIQMTQSPSSLSASVGDRVTITCRTSQSIRGHINWYQQKPGKGPKLLIYGASSLQSGVPSRFSGSGSGTDFTLTISSLQAEDFATYYCQQSYSNPYSFGRGTKLEIKR	0.0124

Noted for M1C7s (antibody, V domains shown) VH: QVQLVQSGPEVRKPGSSVRVSCKASGGTFTRLTITWVRQAPGQGLEWMGRIIPAVDITNYAPKFQGRVTITADKSTGAVYMDLISLTSDDTAIYFCATVLDWSNALDIWGQGTMVTVSS VL: DIVMTQTPLSLSVTPGQPASISCKSSESLLNSDGKTYLFWYLQKPGQSPQVLIYDLSSRFSGVPERFSGSGSGTDFTLKISRVEPEDVGIYYCMQGLHLPWTFGRGTRLEIKR : its PRNT IC50 reads 0.0092

Noted for M3D04 (antibody, V domains shown) VH: EVQLVESGGDLVEPGGSLRLSCAASGFTFESAWMSWVRQAPGKGLEWVGRIKSKLDHGTTDYAAPVKGRFTLSRDDSKNTLFLQMNNLKTEDTGVYYCATDRSDVRFLEWLGNYQFGMDVWGQGTTVAVSS VL: EIVLTQSPGTLSLSPGERATLSCRASHSVSSSYLAWYQQKPGQAPRLLIFGASSRATGIPDRFSGSGSGTDFTLTISRLEPEDFAVYYCQQYLTSPPGWTFGQGTKVEIK : its PRNT IC50 reads 0.327

FYI, the data here is from patent US20240327502A1.
